- target-or-test-system: 5-hydroxytryptamine receptor 1A (Homo sapiens) (UniProt P08908)
- Sequence (P08908 whole entry): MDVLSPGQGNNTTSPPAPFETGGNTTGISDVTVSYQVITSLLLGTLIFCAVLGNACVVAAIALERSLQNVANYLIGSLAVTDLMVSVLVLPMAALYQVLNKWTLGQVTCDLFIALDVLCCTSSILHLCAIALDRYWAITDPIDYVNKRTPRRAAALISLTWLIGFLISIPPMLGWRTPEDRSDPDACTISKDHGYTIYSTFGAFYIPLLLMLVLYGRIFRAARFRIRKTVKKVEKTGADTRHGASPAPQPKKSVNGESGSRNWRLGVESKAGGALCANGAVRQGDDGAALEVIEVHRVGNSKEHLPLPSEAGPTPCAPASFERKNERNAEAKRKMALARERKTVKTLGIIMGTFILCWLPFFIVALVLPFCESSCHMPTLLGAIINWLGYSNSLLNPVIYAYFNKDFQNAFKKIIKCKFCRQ
- measurement-notes: Displacement of [3H]8-OH-DPAT from 5HT1A receptor at 10 uM
endpoint-name: Activity (%)
Lab book: enter the figure in %, no units written.

Example entries begin here.
{"columns": ["compound", "target-or-test-system", "Activity / %"],
 "data": [
  ["FC(F)(F)c1ccc2c(c1)N(Cc1ccc(CN3c4ccccc4Sc4ccc(C(F)(F)F)cc43)cc1)c1ccccc1S2", "5-hydroxytryptamine receptor 1A (Homo sapiens) (UniProt P08908)", 0],
  ["CSc1ccc2c(c1)Sc1ccccc1N2CC1CCCN(C)C1 (stereo not given)", "5-hydroxytryptamine receptor 1A (Homo sapiens) (UniProt P08908)", 67]
]}

[in] GET /values?readout=Activity&item= CN1CCCC(CN2c3ccccc3Sc3cc(-c4ccccc4)ccc32)C1 (stereo not given)
[out] 0

[in] Give its Activity value. Item: FC(F)(F)c1ccc2c(c1)N(CCCNCc1ccccc1)c1ccccc1S2
[out] 61

[in] Any idea what Activity was measured for CC1CN(CCCN2c3ccccc3Sc3ccc(C(F)(F)F)cc32)CC(C)O1 (stereo not given) ?
[out] 98

[in] Activity for CN(C)CCCN1c2ccccc2Sc2ccc(Cl)cc21.Cl [CHLORPROMAZINE HYDROCHLORIDE] ?
[out] 44

[in] Given the entry CC(CO)NCc1ccc(CN2c3ccccc3Sc3ccc(C(F)(F)F)cc32)cc1 (stereo not given) , report its measured Activity.
[out] 24

[in] What value of measured Activity is listed for CN1CCCC(CN2c3ccccc3Sc3ccccc32)C1 (stereo not given) [MEPAZINE] ?
[out] 0

[in] For CC1CN(Cc2ccc(CN3c4ccccc4Sc4ccc(C(F)(F)F)cc43)cc2)CC(C)O1 (stereo not given) , what is its reported Activity?
[out] 0

[in] Given the entry CCN(CC)CCCN1c2ccccc2Sc2ccc(C(F)(F)F)cc21 , report its measured Activity.
[out] 63
